From: patent US20260242478A1

Target System: T1, PSMA Fab
T1 construct: Biotinylated and captured on neutravidin plates in the phage ELISA; also called Anti-PSMA Fab; 006 PSMA Fab
Assay Comment: clonal phage ELISA on biotinylated PSMA Fab captured on neutravidin, anti-M13 HRP detection;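 also: crude clonal phage supernatants added to wells pretreated with PSMA antigen in blocking buffer or with blocking buffer only, then briefly incubated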
Measurement Kind: Phage binding ELISA signal, Anti-PSMA Fab
Give the figure only, with no unit attached.

- Binder: "YTMVCRPAWMCQGF (Peptide-180 library clone, tested as clonal phage supernatant (pIII display)) [Phage-3042]"
  Measured Result: 2.17
- Binder: "PAVRCEPSWMCQGF (Peptide-180 library clone, tested as clonal phage supernatant (pIII display)) [Phage-3037]"
  Measured Result: 2.18
- Binder: "VHNWCVPSWMCLGL (Peptide-180 library clone, tested as clonal phage supernatant (pIII display)) [Phage-3039]"
  Measured Result: 2.18

Query :: So what's the measured Phage binding ELISA signal, Anti-PSMA Fab for this one? IIPACVPPWMCSGF (Peptide-180 library clone, tested as clonal phage supernatant (pIII display)) [Phage-3036]
Result :: 2.18

Query :: Cool, now PTVYCKPEWMCTGF (Peptide-180 library clone, tested as clonal phage supernatant (pIII display)) [Phage-3043]
Result :: 2.17

Query :: Cool, now VIGWCVPQWMCSGF (Peptide-180 library clone, tested as clonal phage supernatant (pIII display)) [Phage-3045]
Result :: 2.17

Query :: Cool, now DYPLCRPEWMCMGF (Peptide-180 library clone, tested as clonal phage supernatant (pIII display)) [Phage-3040]
Result :: 2.18

Query :: Cool, now ELLMCRPAWMCDGF (Peptide-180 library clone, tested as clonal phage supernatant (pIII display)) [Phage-3033]
Result :: 2.18
